The measurements presented in this section are drawn from ChEMBL document CHEMBL3124815.

In this section we review reported IC50 values for a set of compounds.
Target: Serine/threonine-protein kinase B-raf (Homo sapiens, UniProt P15056, V600E)
Sequence (P15056 2-766 V600E limits assumed): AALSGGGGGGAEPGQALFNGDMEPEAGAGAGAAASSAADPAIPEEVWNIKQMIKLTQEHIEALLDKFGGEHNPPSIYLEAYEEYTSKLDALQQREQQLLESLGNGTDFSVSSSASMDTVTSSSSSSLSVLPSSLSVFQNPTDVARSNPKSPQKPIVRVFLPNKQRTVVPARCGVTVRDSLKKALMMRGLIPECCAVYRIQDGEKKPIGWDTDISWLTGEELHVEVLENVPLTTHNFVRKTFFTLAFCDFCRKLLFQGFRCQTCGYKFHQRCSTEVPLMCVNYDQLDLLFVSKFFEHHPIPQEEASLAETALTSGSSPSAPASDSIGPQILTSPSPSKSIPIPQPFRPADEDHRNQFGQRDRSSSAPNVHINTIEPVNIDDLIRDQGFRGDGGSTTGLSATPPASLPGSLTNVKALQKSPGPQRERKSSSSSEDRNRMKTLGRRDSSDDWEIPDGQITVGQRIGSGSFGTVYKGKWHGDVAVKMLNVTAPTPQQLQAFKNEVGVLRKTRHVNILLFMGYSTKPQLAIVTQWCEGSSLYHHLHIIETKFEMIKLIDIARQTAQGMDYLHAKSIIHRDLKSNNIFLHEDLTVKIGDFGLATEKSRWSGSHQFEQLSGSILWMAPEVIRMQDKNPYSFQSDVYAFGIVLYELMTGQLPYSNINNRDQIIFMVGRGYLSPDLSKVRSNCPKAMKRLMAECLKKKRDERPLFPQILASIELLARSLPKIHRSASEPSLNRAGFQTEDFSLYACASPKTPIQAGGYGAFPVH
Assay: Inhibition of N-terminal FLAG-tagged recombinant BRAF V600E mutant (unknown origin) expressed in baculovirus system preincubated for 10 mins before substrate addition measured after 20 mins by scintillation counting
Reply numerically in nM, unit not repeated.

N#Cc1c(Oc2cccc(NC(=O)Nc3cccc(C(F)(F)F)c3)c2)ccc2nc(NC(=O)C3CC3)sc12 : 18

Consider the additional compound presented here.
Q: # lookup: IC50 of CC(C)(C#N)c1cccc(C(=O)Nc2cccc(Oc3ccc4nc(NC(=O)C5CC5)sc4c3C(=O)O)c2)c1
A: 290
